- System: 362531-283-R-J2-PDC complex spheroid viability
- ASSAY_INFO: Anticancer human tumor 362531-283-R-J2-PDC patient-derived colon adenocarcinoma cell line growth inhibition [RAS]
- MEASUREMENT_SETUP: second compound 1 µM; first compound 0.0316 µM; hits give low values
Provide the recorded viability, T/C for the entries that follow.

Consider the reported viability, T/C for these compounds:
{"columns": ["COMPOUND", "viability, T/C"],
 "data": [
  ["CCN1CCN(Cc2ccc(Nc3ncc(F)c(-c4cc(F)c5nc(C)n(C(C)C)c5c4)n3)nc2)CC1 + C#Cc1c(F)ccc2cc(O)cc(-c3ncc4c(N5CC6CCC(C5)N6)nc(OCC56CCCN5CC(F)C6)nc4c3F)c12", "74.1%"],
  ["C=CC(=O)Nc1cc(Nc2nccc(-c3cn(C)c4ccccc34)n2)c(OC)cc1N(C)CCN(C)C + C#Cc1c(F)ccc2cc(O)cc(-c3ncc4c(N5CC6CCC(C5)N6)nc(OCC56CCCN5CC(F)C6)nc4c3F)c12", "73%"],
  ["NC1c2ccccc2OC12CCN(c1cnc3c(N4CCCc5ncccc54)n[nH]c3n1)CC2 (stereo not given) + C#Cc1c(F)ccc2cc(O)cc(-c3ncc4c(N5CC6CCC(C5)N6)nc(OCC56CCCN5CC(F)C6)nc4c3F)c12", "54.7%"]
]}

List viability, T/C for every entry below, keeping the order given.
1. C=CC(=O)N1CCN(c2nc(OCC3CCCN3C)nc3c(F)c(-c4nc(N)cc(C)c4C(F)(F)F)c(Cl)cc23)C(C)C1 (stereo not given) + C#Cc1c(F)ccc2cc(O)cc(-c3ncc4c(N5CC6CCC(C5)N6)nc(OCC56CCCN5CC(F)C6)nc4c3F)c12
2. CCN1CCN(Cc2ccc(Nc3ncc(F)c(-c4cc(F)c5nc(C)n(C(C)C)c5c4)n3)nc2)CC1 + C=CC(=O)N1CCN(c2nc(OCC3CCCN3C)nc3c(F)c(-c4nc(N)cc(C)c4C(F)(F)F)c(Cl)cc23)C(C)C1

*A*
["82.7%", "94.6%"]

---

- System: 362531-283-R-J2-PDC complex spheroid viability
- ASSAY_INFO: Anticancer human tumor 362531-283-R-J2-PDC cell line growth inhibition [RAS]; active = viability on the fitted dose curve at most 10% of control; inactive = the rest;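 note: spheroids exposed to the agents for 7 days before readout; luminescence viability as percent of DMSO vehicle control wells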
- MEASUREMENT_SETUP: second compound 0.00316 µM; first compound 10 µM
Respond only with the outcome that fits, drawn from 1.0 = active, 0.0 = inactive

Check out these entries, answers already filled in.
{"columns": ["MOLECULE", "CLASS_NAME"],
 "data": [
  ["CC1(O)CCCC1n1c(=O)c(C(F)F)cc2cnc(NC3CCN(S(C)(=O)=O)CC3)nc21 (stereo not drawn) + C=CC(=O)N1CCN(c2nc(OCC3CCCN3C)nc3c(F)c(-c4nc(N)cc(C)c4C(F)(F)F)c(Cl)cc23)C(C)C1", 0.0],
  ["CCC(CC)c1cc(NC2CCC(N)C2)n2nccc2n1 (stereo not drawn) + C=CC(=O)N1CCN(c2nc(OCC3CCCN3C)nc3c(F)c(-c4nc(N)cc(C)c4C(F)(F)F)c(Cl)cc23)C(C)C1", 1.0],
  ["CC(C)NCC(C(=O)N1CCN(c2ncnc3c2C(C)CC3O)CC1)c1ccc(Cl)cc1 (stereo not drawn) + C=CC(=O)N1CCN(c2nc(OCC3CCCN3C)nc3c(F)c(-c4nc(N)cc(C)c4C(F)(F)F)c(Cl)cc23)C(C)C1", 0.0],
  ["CC(Nc1ccc2c(c1)OCCn1cc(N3C(=O)OCC3C(F)F)nc1-2)C(N)=O (stereo not drawn) + C=CC(=O)N1CCN(c2nc(OCC3CCCN3C)nc3c(F)c(-c4nc(N)cc(C)c4C(F)(F)F)c(Cl)cc23)C(C)C1", 0.0],
  ["CC(=O)OC12COC1CC(O)C1(C)C(=O)C(O)C3=C(C)C(OC(=O)C(O)C(NC(=O)OC(C)(C)C)c4ccccc4)CC(O)(C(OC(=O)c4ccccc4)C21)C3(C)C (stereo not drawn) + C=CC(=O)N1CCN(c2nc(OCC3CCCN3C)nc3c(F)c(-c4nc(N)cc(C)c4C(F)(F)F)c(Cl)cc23)C(C)C1", 0.0]
]}

*Q* // return assay outcome for Cc1nc(N2CCC3(CC2)COC(C)C3N)c(CO)nc1Sc1ccnc(N)c1Cl (stereo not drawn) + C=CC(=O)N1CCN(c2nc(OCC3CCCN3C)nc3c(F)c(-c4nc(N)cc(C)c4C(F)(F)F)c(Cl)cc23)C(C)C1
*A* 0.0

*Q* Next record, please: C[C@@H](NC(=O)c1ncnc(N)c1Cl)c1ncc(C(=O)Nc2cc(C(F)(F)F)c(Cl)cn2)s1 + C=CC(=O)N1CCN(c2nc(OCC3CCCN3C)nc3c(F)c(-c4nc(N)cc(C)c4C(F)(F)F)c(Cl)cc23)C(C)C1
*A* 0.0

*Q* Next record, please: NC1c2ccccc2OC12CCN(c1cnc3c(N4CCCc5ncccc54)n[nH]c3n1)CC2 (stereo not drawn) + C=CC(=O)N1CCN(c2nc(OCC3CCCN3C)nc3c(F)c(-c4nc(N)cc(C)c4C(F)(F)F)c(Cl)cc23)C(C)C1
*A* 0.0
